- Tested on: SEM cells
- TEST DESCRIPTION: cell viability relative to DMSO control; higher = less cytotoxic
- STATED CONDITIONS: HPLM + 10% dialyzed FBS; 48 h; 0.00234 µM
Answer each item with its documented cell viability.
I only need the number, in %, no unit after it.

Dear colleague, I am looking for the recorded cell viability of the following compound: CC(C)[C@H](N)C(=O)OCCOC[N]1C=NC2=C1\N=C(N)/NC2=O
101

Record request: cell viability value, item OCCn1cc(-c2cnc3nnn(Cc4ccc5ncccc5c4)c3n2)cn1
107

Item C[C@H]1O[C@H](C[C@H](O)[C@@H]1O)O[C@H]2[C@@H](O)C[C@@H](O[C@@H]2C)O[C@H]3[C@@H](O)C[C@@H](O[C@@H]3C)O[C@H]4CC[C@@]5(C)[C@H](CC[C@@H]6[C@@H]5C[C@@H](O)[C@]7(C)[C@H](CC[C@]67O)C/8=C/C(=O)OC8)C4 has what recorded cell viability?
106

Entry CN1CCN(C(=O)O[C@H]2c3nccnc3C(=O)N2c2ccc(Cl)cn2)CC1 has what cell viability?
105

Look up cell viability for this compound: CC(C)Cc1ccc(C(C)C(=O)O)cc1 (stereo not drawn)
84.7

Entry CC1(C)C(N(O)C(=O)Nc2ccc(Cl)cc2)N(c2ccc(Cl)cc2)C(=O)N1CC(=O)N/N=C/C=C/c1ccc([N+](=O)[O-])o1 (stereo not drawn) has what cell viability?
117

// lookup cell viability for Cc1c[nH]c(-c2cnc(NCCNc3ccc(C#N)cn3)nc2-c2ccc(Cl)cc2Cl)n1
74.5

What value of cell viability has been recorded for this entry: CN(Cc1cc(Br)cc(Br)c1N)C1CCCCC1
122
